Taken from ChEMBL document CHEMBL3046016.

Recorded Time, one value per entry.
System: Earias vittella
run description: Insecticidal activity against female adult Earias vitella assessed as adult longevity time at 10 ug/cm3 administered through artificial diet containing Abelmoschus esculentus seed powder (reference value: 8.6 +/- 0.48 days)
Assay type: functional
value type: Time (days)

{"molecule": "CC[C@@](C)(OC(C)=O)C(=O)O[C@H]1[C@H](O)C[C@@H]2[C@@](C)([C@@H]3C[C@H]4C=CO[C@H]4O3)[C@H](C)C[C@H](OC(C)=O)[C@@]2(COC(C)=O)[C@@]12CO2", "test result": 4.8}
{"molecule": "CC[C@@](C)(OC(C)=O)C(=O)O[C@H]1[C@H](OC(C)=O)C[C@@H]2[C@@](C)([C@@H]3C[C@H]4C=CO[C@H]4O3)[C@H](C)C[C@H](OC(C)=O)[C@@]2(COC(C)=O)[C@@]12CO2 [CLERODENDRIN B ACETATE]", "test result": 7.2}

====

Tested on: Earias vittella
run description: Insecticidal activity against female adult Earias vitella assessed as adult longevity time at 10 ug/cm3 administered through artificial diet containing Abelmoschus esculentus seed powder (reference value: 8.6 +/- 0.48 days)
Assay type: functional
Catalogue of Time readings, one per entry.

{"compound": "CC(=O)OC[C@@]12[C@@H](OC(C)=O)C[C@@H](C)[C@](C)([C@@H]3C[C@H]4C=CO[C@H]4O3)[C@H]1CC[C@H](OC(C)=O)[C@]21CO1 [3-EPICARYOPTIN]", "tested on": "Earias vittella", "units label": "days", "Time": 5.8}
{"compound": "CC(=O)OC[C@@]12[C@@H](OC(C)=O)C[C@@H](C)[C@](C)([C@@H]3C[C@H]4CC(O)O[C@H]4O3)[C@H]1CC[C@H](OC(C)=O)[C@]21CO1 (some centres undefined) [15-HYDROXYEPICARYOPTIN]", "tested on": "Earias vittella", "units label": "days", "Time": 6.6}
{"compound": "CC(=O)OC[C@@]12[C@@H](OC(C)=O)C[C@@H](C)[C@](C)([C@@H]3C[C@H]4C=CO[C@H]4O3)[C@H]1C[C@@H](O)[C@H](OC(=O)C(C)(C)OC(C)=O)[C@]21CO1", "tested on": "Earias vittella", "units label": "days", "Time": 7.2}
{"compound": "CC(=O)OC[C@@]12[C@@H](OC(C)=O)C[C@@H](C)[C@](C)([C@@H]3C[C@H]4C=CO[C@H]4O3)[C@H]1CCC[C@]21CO1", "tested on": "Earias vittella", "units label": "days", "Time": 6.6}

====

System: Spodoptera litura
run description: Insecticidal activity against adult Spodoptera litura in compound-treated castor leaves assessed as adult deformity at 10 ug/cm2 relative to control
Format: functional
Reported Activity is given for each of the following compounds.

{"compound": "CC(=O)OC[C@@]12[C@@H](OC(C)=O)C[C@@H](C)[C@](C)([C@@H]3C[C@H]4C=CO[C@H]4O3)[C@H]1C[C@@H](O)[C@H](OC(=O)C(C)(C)OC(C)=O)[C@]21CO1", "units label": "%", "Activity": 8}
{"compound": "CC(=O)OC[C@@]12[C@@H](OC(C)=O)C[C@@H](C)[C@](C)([C@@H]3C[C@H]4CC(O)O[C@H]4O3)[C@H]1CC[C@H](OC(C)=O)[C@]21CO1 (stereo partly specified) [15-HYDROXYEPICARYOPTIN]", "units label": "%", "Activity": 9.6}
{"compound": "CC(=O)OC[C@@]12[C@@H](OC(C)=O)C[C@@H](C)[C@](C)([C@@H]3C[C@H]4C=CO[C@H]4O3)[C@H]1CC[C@H](OC(C)=O)[C@]21CO1 [3-EPICARYOPTIN]", "units label": "%", "Activity": 12.8}
{"compound": "CC[C@@](C)(OC(C)=O)C(=O)O[C@H]1[C@H](OC(C)=O)C[C@@H]2[C@@](C)([C@@H]3C[C@H]4C=CO[C@H]4O3)[C@H](C)C[C@H](OC(C)=O)[C@@]2(COC(C)=O)[C@@]12CO2 [CLERODENDRIN B ACETATE]", "units label": "%", "Activity": 8.8}
{"compound": "CC[C@@](C)(OC(C)=O)C(=O)O[C@H]1[C@H](O)C[C@@H]2[C@@](C)([C@@H]3C[C@H]4C=CO[C@H]4O3)[C@H](C)C[C@H](OC(C)=O)[C@@]2(COC(C)=O)[C@@]12CO2", "units label": "%", "Activity": 16.8}
{"compound": "CC(=O)OC[C@@]12[C@@H](OC(C)=O)C[C@@H](C)[C@](C)([C@@H]3C[C@H]4C=CO[C@H]4O3)[C@H]1CCC[C@]21CO1", "units label": "%", "Activity": 9.6}
